Tested on: P. falciparum translation (P. falciparum lysate)
measurement.protocol: P. falciparum in vitro translation (PfIVT) assay, lysate-based, luciferase reporter
Type: biochemical, Plasmodium falciparum
condition.description: single-point screen, 30 μM; Pathogen Box
Source text: Our P. falciparum in vitro translation (PfIVT) assay is built upon previously established assays ([14], [17]) and is summarized in Fig. 1A. […] Translationally active P. falciparum or human embryonic kidney (HEK) 293F lysates were supplemented with accessory, helper, amino acid, and energy regeneration solutions (see Materials and Methods for details). […] In addition, we compared the luminescence signal of the CBG firefly luciferase with CBG99, derived from the click beetle […] ([18]). […]
Each entry falls into one class according to its PfIVT inhibition at 30 μM (%); the ranges are bin A: < 70%; bin B: ≥ 70% and < 90%; bin C: ≥ 90%

Would you please look over these solved cases?
{"compound": "CC(=O)Oc1ccccc1C(=O)Nc1ncc([N+](=O)[O-])s1 [MMV688991, nitazoxanide, reference compound]", "class": "bin C"}
{"compound": "COc1ccc(C2=NCCN2)cc1-c1cn(-c2cccc(C3=NCCN3)c2)nn1 [MMV688547]", "class": "bin C"}
{"compound": "O=C(Nc1ccc(F)c(-c2nc3cc(-c4ccccc4)cnc3[nH]2)c1)N1CCCC1 [MMV688372]", "class": "bin A"}

Exercise: Class (by measured PfIVT inhibition at 30 μM (%)) for N=C(N)Nc1ccc(-c2ccc(-c3ccc(N=C(N)N)c(Cl)c3)o2)cc1Cl [MMV688271]
Solution: bin A

Exercise: Also need O=C(NCCN1CCCC1)c1cc(NCCCCN2CCC(F)(F)CC2)nc2ccc(Cl)cc12 [MMV667494] , thanks.
Solution: bin C

Exercise: Would you kindly repeat that for O=C(Nc1c(O)cccc1-c1nc2c(C(=O)O)cccc2o1)c1cc(-c2ccccc2)on1 [MMV676008] ?
Solution: bin B

Exercise: Next compound: NC(=O)c1cc(Br)ccc1OCCOc1ccccc1 [MMV687243]
Solution: bin B

Exercise: Also need Cc1ccc(C(=O)Nc2ccc(S(=O)(=O)O)c3cc(S(=O)(=O)O)cc(S(=O)(=O)O)c23)cc1NC(=O)c1cccc(NC(=O)Nc2cccc(C(=O)Nc3cc(C(=O)Nc4ccc(S(=O)(=O)O)c5cc(S(=O)(=O)O)cc(S(=O)(=O)O)c45)ccc3C)c2)c1 [MMV637953] , thanks.
Solution: bin B

Exercise: Now this one: O=C(Nc1nc(-c2ccccn2)cs1)c1cncn1-c1ccccc1 [MMV676512]
Solution: bin A

Exercise: Same again, this time with COc1cc(C2=NCCN2)ccc1-c1cn(-c2cccc(C3=NCCN3)c2)nn1 [MMV688407]
Solution: bin C

Exercise: // next record COc1cc(C2=NCCN2)cc2cc(-c3ccc(C4=NCCN4)cc3)oc12 [MMV688362]
Solution: bin C

Exercise: Repeat with O=C(Nc1ccc(C(F)(F)F)c(C(F)(F)F)c1)c1cc(Cl)ccc1O [MMV687807]
Solution: bin C

Exercise: Then this compound: COc1cc(C2=NCCN2)ccc1-n1cc(-c2cccc(C3=NCCN3)c2)nn1 [MMV688474]
Solution: bin B

Exercise: Now consider CCCCOC(=O)Nc1cc2[nH]c(C3CCCCC3)nc2cc1N1CCCC1 [MMV687730] and answer again.
Solution: bin B

Exercise: Ok, now COc1ccc2nc(C)cc(OCC(=O)Nc3ccccc3OC)c2c1 [MMV687188]
Solution: bin A

Exercise: Then Cc1c[nH]c(CCNC(=O)c2cc(-c3ccc(Cl)cc3)cs2)n1 [MMV676350] ?
Solution: bin A

Exercise: Try the compound Cc1ccc2c(c1C)NC(=O)C21NN=C(c2ccccc2)S1 (stereo not shown) [MMV019189]
Solution: bin B
